- System: HOP-92 NSCLC
- Procedure Summary: NCI tumour cell line growth inhibition, 48 h
I would appreciate it if you labelled entries Satisfied when TGI is 40 µM or higher, otherwise Not satisfied.

Consider the following illustrative entries.
| Compound | Class Name |
| --- | --- |
| C/C(=N\N=C(\N)OB(F)F)c1ccccn1 | Satisfied |
| Cc1cc(=O)cc2sc3cc(Cl)ccc3nc1-2 | Satisfied |
| CCOC(=O)c1ccc(-c2cccs2)n1C | Satisfied |

Field: next compound
Determine whether this compound has TGI no lower than 40 µM: Oc1ccc(Cl)cc1Cc1cc(Cl)cc(Cc2cc(Cl)ccc2O)c1O
Not satisfied

----------
- System: A498 renal
- Procedure Summary: NCI tumour cell line growth inhibition, 48 h
# log10(TGI) annotations
Scale: decimal log of TGI, TGI in µM.

| Compound | log10(TGI) |
| --- | --- |
| O=C(O[C@H]1CN[C@H](C#Cc2cc3ncnc(Nc4ccc(Cc5ccccc5)cc4)c3s2)C1)N1CCOCC1 | 0.81 |
| C/C=C1/CN2CCC34C5=CC(=O)C(c6cc7c(cc6OC)N(C)C6=C(C(=O)OC)CC8(CC)CCCN9CCC67C98)=CC5=NC23CCC1C4C(=O)OC (stereo unspecified) | 1.48 |
| COc1cccc(/C=N/[N-]C(N)=O)c1[O-].[Cu+2].[OH3+].c1cnc2c(c1)ccc1cccnc12 | 1.34 |
| CC(/C=C/C=C/C=C/C=C/C=C/C(O)=C1/C(=O)C(CCC(=O)O)N(C)C1=O)=C\C(C)C(OC1CC(O)C(O)C(C)O1)C(C)C (stereo unspecified) | 1.03 |
| Fc1cc(C2=C[C@H](c3ccc4c(c3)OCO4)NC(=S)N2)c(Cl)cc1Cl | 1.90 |

// lookup log10(TGI) for Cc1ccccc1NC(=O)N/C(N)=N/c1nc2ccccc2s1
-0.85

Give the measured log10(TGI) of O=C(CSc1nc2ccc(Cl)cc2c(=O)n1-c1ccccc1)N=Nc1c(O)[nH]c2ccc(F)cc12 .
0.99

Suppose we examine the compound COC1OC(C(=O)CP(=O)(OC)OC)C(OCc2ccccc2)C(OCc2ccccc2)C1OCc1ccccc1 (stereo unspecified) ; what log10(TGI) value has been reported?
1.43

Record request: log10(TGI) value, item Nc1ccccc1C#Cc1ccccc1C#Cc1ccccc1N
1.30

For Oc1c(Cl)cc(C(c2cc(Cl)c(O)c(Cl)c2)C(c2cc(Cl)c(O)c(Cl)c2)c2cc(Cl)c(O)c(Cl)c2)cc1Cl , what is its reported log10(TGI)?
1.42

----------
- System: SNB-75 CNS
- Procedure Summary: NCI tumour cell line growth inhibition, 48 h; in the data active means GI50 below about 0.43 µM; inactive means the rest
Your reply should match one of these outcome classes. YES for active, NO for inactive

Would you please look over these solved cases?
| Compound | Class Name |
| --- | --- |
| Nc1ccccc1C#Cc1ccccc1C#Cc1ccccc1N | NO |
| O=C(O[C@H]1CN[C@H](C#Cc2cc3ncnc(Nc4ccc(Cc5ccccc5)cc4)c3s2)C1)N1CCOCC1 | NO |
| COc1cc(C2=Nc3c/c(=C\c4c(O)[nH]c5ccc(Cl)cc45)ccc3=N2)cc(OC)c1OC | NO |
| Cn1c(=O)c(Sc2ccccc2F)cc2cnc(NC3CCOCC3)nc21 | NO |
| O=C(/C=C/c1ccccc1Cl)c1ccc(O)cc1 | NO |
| Clc1ccc(-c2nc(-c3c[nH]c4ncccc34)cs2)cc1 | NO |
| Cc1cc(N2CCOCC2)nc(N(CCCNc2ccnc3cc(Cl)ccc23)Cc2ccc3c(c2)OCO3)n1 | NO |
| CCCCCCCCCCCCCCCCCC(=O)[O][Sn]([CH2]CCC)([CH2]CCC)[CH2]CCC | YES |
| C[CH2][Sn]1([CH2]C)[O]C2C(O)OC(CO)C(O)C2[O]1 (stereo not given) | NO |

Turning now to a further compound:
Per the assay record, what outcome was assigned to Nc1cccc(-c2nc3sccn3c2-c2ccnc(NCCCNS(=O)(=O)c3ccc(C(F)(F)F)cc3)n2)c1 ?
NO
